- ASSAYED SYSTEM: GORASP2, Q9H8Y8
- TEST METHOD NOTES: holdup assay
- Design: key: below the threshold = too weak to quantify, mostly under pKd 3.1 to 4
- CONDITION LABEL: plain residues with an end cap or a label only (N-terminal biotin on a linker: ado-ado)
VALUE KIND: pKd

[
  {
    "BINDER": "PGKKPEDSRV [SLCO2B1, O94956]",
    "pKd": "below the threshold"
  },
  {
    "BINDER": "FHSIKQSTAV [CRHR1, P34998]",
    "pKd": "below the threshold"
  },
  {
    "BINDER": "GDSSRKEYFI [GYPC, P04921]",
    "pKd": 4.61
  },
  {
    "BINDER": "HDDYFYHDEL [RCN2, Q14257]",
    "pKd": "below the threshold"
  },
  {
    "BINDER": "DYSNLRETDI [ADRA1D, P25100]",
    "pKd": "below the threshold"
  }
]

For the 3 binders below, give their pKd values.
1. GVHSNDHSVV [LPAR1, Q92633]
2. MLPANYVEAI [NEB, P20929]
3. KSRPENGTVC [TMEM178B, H3BS89]

Output:
1. 3.61
2. 4.31
3. below the threshold

Reference source: paper PMC9482650
